Numbers sourced from PubChem BioAssay (EPA / NIEHS).

Biological target: Paired box protein Pax-6 (Homo sapiens)
Test: ATG_Pax6_CIS: Attagene CIS-FACTORIAL HepG2 Assay for human Paired Box 6 (PAX6) (AID 2282956)
Conditions: HepG2 CIS-FACTORIAL PAX6 reporter transcription, RNA readout; actives raise or lower the signal
Active and inactive are the calls of the source. Rule for the calls: active = hit-call score of the fitted dose curve at least 0.9, where 1 is the maximum; inactive = score below 0.9.
Possible outcomes: active, inactive

Given Smiles | Class Assignment
CC(c1ccc(O)cc1)(c1ccc(O)cc1)c1ccc(O)cc1 | active
CC1=C2C[C@H]3[C@@H](CC=C4C[C@@H](O)CC[C@@]43C)[C@@H]2CC[C@]12O[C@@H]1C[C@H](C)CN[C@H]1[C@H]2C | active
ClC1=C(Cl)[C@]2(Cl)[C@@H]3[C@@H]4C[C@@H]([C@H]5O[C@@H]45)[C@@H]3[C@@]1(Cl)C2(Cl)Cl | inactive
CC#Cc1cc(C)nc(Nc2ccccc2)n1 | active
Cc1cc(O)ccc1Cl | inactive
ClC1=C(Cl)[C@]2(Cl)[C@@H]3[C@@H](Cl)[C@H]4O[C@H]4[C@@H]3C1(Cl)C2(Cl)Cl | inactive
O=C(N[C@H]1CN2CCC1CC2)c1cc2ccoc2cn1 | inactive
CO/C=C(/C(=O)OC)c1ccccc1COc1cccc(C(F)(F)F)n1 | active
CCNc1nc(NC(C)C)nc(SC)n1 | inactive
ClC1=C(Cl)[C@]2(Cl)[C@@H]3[C@H]4C[C@H]([C@@H]5O[C@H]45)[C@@H]3[C@@]1(Cl)C2(Cl)Cl | inactive
CCCCCCOC(=O)c1ccccc1C(=O)OCCCCCC | inactive
N#Cc1ccc(N(CC(N)=O)CC(F)(F)F)cc1C(F)(F)F | inactive
CN(C)CCO | inactive
Cc1cccc(C)c1N | inactive
CCOP(=S)(OCC)SCSC(C)(C)C | inactive
Sc1ccccc1 | inactive
c1cc2ccc3cccc4ccc(c1)c2c34 | inactive

* * *

Test: Tanguay_ZF_120hpf_BRAI_legacy: (Legacy) Oregon State University Tanguay Lab 120 Hour Post-fertilization zebrafish Assay for Brain Malformation (AID 2283641)
Inconclusive results are not listed. Activity calls are given as the source filed them. The calls were made as follows: active = hit-call score of the fitted dose curve at least 0.9, where 1 is the maximum; inconclusive = response in the unintended direction; inactive = score below 0.9.
Possible outcomes: yes (1) = active, no (0) = inactive

Compound | Class Assignment
NS(=O)(=O)C(F)(F)C(F)(F)C(F)(F)C(F)(F)C(F)(F)C(F)(F)C(F)(F)C(F)(F)F | no (0)
CCNc1nc(NC(C)C)nc(SC)n1 | no (0)
Clc1ccc(C(c2ccccc2Cl)C(Cl)(Cl)Cl)cc1 (configuration not stated) | no (0)
C=CC(N)=O | no (0)
Cc1ccc(O)c(C)c1 | no (0)
ClC(Cl)=C(c1ccc(Cl)cc1)c1ccc(Cl)cc1 | no (0)
Cc1ccccc1[N+](=O)[O-] | no (0)
Cc1cccc([N+](=O)[O-])c1 | no (0)
CC1=C2C[C@H]3[C@@H](CC=C4C[C@@H](O)CC[C@@]43C)[C@@H]2CC[C@]12O[C@@H]1C[C@H](C)CN[C@H]1[C@H]2C | no (0)
Cc1ccccc1CO[C@@H]1C[C@@]2(C(C)C)CC[C@]1(C)O2 | no (0)
CCCCCCOC(=O)c1ccccc1C(=O)OCCCCCC | no (0)
CCSC(=O)N(CC)C1CCCCC1 | no (0)
N#Cc1ccc(N(CC(N)=O)CC(F)(F)F)cc1C(F)(F)F | no (0)
O=S(=O)(O)C(F)(F)C(F)(F)C(F)(F)C(F)(F)C(F)(F)C(F)(F)F | yes (1)
Cc1cc2c3c(c1)C(c1ccccc1)=N[C@@H](NC(=O)c1ccncc1)C(=O)N3CC2 | no (0)
ClC1=C(Cl)[C@]2(Cl)[C@@H]3[C@@H](Cl)[C@H]4O[C@H]4[C@@H]3C1(Cl)C2(Cl)Cl | no (0)
Oc1c(Cl)c(Cl)c(Cl)c(Cl)c1Cl | no (0)
CN(C)CCO | no (0)
CCC(C)(CC)c1cc(NC(=O)c2c(OC)cccc2OC)on1 | no (0)
ClC1=C(Cl)[C@]2(Cl)[C@@H]3[C@H]4C[C@H]([C@@H]5O[C@H]45)[C@@H]3[C@@]1(Cl)C2(Cl)Cl | yes (1)
CC#Cc1cc(C)nc(Nc2ccccc2)n1 | no (0)
O=C(O)C(F)(F)C(F)(F)C(F)(F)C(F)(F)C(F)(F)F | no (0)
CCCCCCCCOC(=O)c1ccccc1C(=O)OCCCCCCCC | no (0)
O=C(NC(=O)c1c(F)cccc1F)Nc1cc(Cl)c(OC(F)(F)C(F)F)c(Cl)c1 | no (0)
CN(C)c1nc(=O)n(C2CCCCC2)c(=O)n1C | no (0)
CC(c1ccc(O)cc1)(c1ccc(O)cc1)c1ccc(O)cc1 | no (0)
Cc1ccccc1O | no (0)
Cc1cc(-c2ccc(N)c(C)c2)ccc1N | no (0)
O=C(O)C(F)(F)C(F)(F)C(F)(F)C(F)(F)C(F)(F)C(F)(F)C(F)(F)C(F)(F)C(F)(F)F | no (0)
CCC(=O)O[C@H]1CC[C@H]2[C@@H]3CCC4=CC(=O)CC[C@]4(C)[C@H]3CC[C@]12C | no (0)
O=NN(c1ccccc1)c1ccccc1 | no (0)
Oc1ccc(C(c2ccc(O)cc2)(C(F)(F)F)C(F)(F)F)cc1 | no (0)
